These entries and their values trace back to patent US9295673B2.

pIC50 overview
# TESTED TARGET: PI3K β (Homo sapiens)
# Sequence (P42338 whole entry): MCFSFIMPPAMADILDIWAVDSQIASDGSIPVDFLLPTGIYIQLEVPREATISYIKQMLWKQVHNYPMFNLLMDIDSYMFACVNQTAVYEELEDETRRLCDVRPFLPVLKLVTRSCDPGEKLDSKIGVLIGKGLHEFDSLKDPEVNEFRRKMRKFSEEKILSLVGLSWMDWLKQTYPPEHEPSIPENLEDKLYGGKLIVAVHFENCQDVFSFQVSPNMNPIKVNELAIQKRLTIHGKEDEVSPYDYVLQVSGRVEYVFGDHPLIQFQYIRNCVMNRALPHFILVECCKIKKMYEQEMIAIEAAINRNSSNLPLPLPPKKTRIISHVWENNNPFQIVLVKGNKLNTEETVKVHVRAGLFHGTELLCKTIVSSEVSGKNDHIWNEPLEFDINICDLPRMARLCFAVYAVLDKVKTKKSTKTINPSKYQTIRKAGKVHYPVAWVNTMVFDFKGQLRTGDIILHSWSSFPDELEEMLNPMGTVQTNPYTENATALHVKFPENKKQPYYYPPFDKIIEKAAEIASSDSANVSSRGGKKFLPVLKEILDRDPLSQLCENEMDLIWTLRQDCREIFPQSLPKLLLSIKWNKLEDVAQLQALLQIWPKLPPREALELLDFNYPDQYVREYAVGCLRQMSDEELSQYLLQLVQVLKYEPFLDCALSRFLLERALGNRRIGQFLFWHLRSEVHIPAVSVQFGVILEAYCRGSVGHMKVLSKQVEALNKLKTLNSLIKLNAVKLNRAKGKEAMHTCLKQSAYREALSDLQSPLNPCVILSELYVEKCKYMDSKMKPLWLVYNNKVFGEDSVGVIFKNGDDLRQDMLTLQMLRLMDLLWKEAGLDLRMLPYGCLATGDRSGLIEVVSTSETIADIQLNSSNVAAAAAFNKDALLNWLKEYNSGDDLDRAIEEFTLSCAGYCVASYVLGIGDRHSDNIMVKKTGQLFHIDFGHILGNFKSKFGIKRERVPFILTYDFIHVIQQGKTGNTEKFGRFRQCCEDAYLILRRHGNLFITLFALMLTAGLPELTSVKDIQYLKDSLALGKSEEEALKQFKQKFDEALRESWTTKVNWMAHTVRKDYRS
# Sequence (P27986 whole entry partner): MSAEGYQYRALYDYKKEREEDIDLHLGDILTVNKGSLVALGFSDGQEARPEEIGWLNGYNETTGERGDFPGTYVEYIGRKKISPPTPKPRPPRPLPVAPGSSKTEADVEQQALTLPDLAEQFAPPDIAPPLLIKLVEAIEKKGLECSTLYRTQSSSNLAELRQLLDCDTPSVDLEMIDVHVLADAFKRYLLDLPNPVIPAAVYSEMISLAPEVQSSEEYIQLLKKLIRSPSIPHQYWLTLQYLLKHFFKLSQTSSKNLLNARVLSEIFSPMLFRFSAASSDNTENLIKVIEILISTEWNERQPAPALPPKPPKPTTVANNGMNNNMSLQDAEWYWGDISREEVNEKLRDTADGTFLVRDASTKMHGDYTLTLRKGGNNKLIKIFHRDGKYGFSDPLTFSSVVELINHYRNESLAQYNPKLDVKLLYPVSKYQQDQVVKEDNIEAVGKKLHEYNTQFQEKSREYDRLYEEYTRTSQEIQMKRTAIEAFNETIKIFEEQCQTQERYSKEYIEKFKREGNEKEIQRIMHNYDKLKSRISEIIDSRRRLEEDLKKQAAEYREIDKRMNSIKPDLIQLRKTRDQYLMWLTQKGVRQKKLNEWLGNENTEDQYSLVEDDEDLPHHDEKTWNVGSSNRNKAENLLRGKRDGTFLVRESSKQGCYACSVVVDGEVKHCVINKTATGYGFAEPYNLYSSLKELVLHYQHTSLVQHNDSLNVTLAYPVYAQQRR
# ASSAY REMARKS: PI 3-Kinase (human) HTRF assay, PI3K β
# EXPERIMENTAL CONDITIONS: read-out: PI3K β IC50
pIC50: −log10 of the molar value.

Record excerpt, results attached:
COMPOUND | TESTED TARGET | VALUE KIND | RESULT
Nc1nc2cc(-c3ccc4ncc(C(=O)NC5CCC(O)CC5)n4c3)ccc2o1 (centres unmarked) [Compound 143] | PI3K β (Homo sapiens) | pIC50 | > 5.00
CC(C)[C@H](N)C(=O)N1CCN(c2cnc3ccc(-c4ccc5oc(N)nc5c4)cc3n2)CC1 [Compound 269] | PI3K β (Homo sapiens) | pIC50 | > 6.00
Cc1ccc(NC(=O)c2cnc3ccc(-c4ccc5oc(N)nc5c4)cn23)cn1 [Compound 294] | PI3K β (Homo sapiens) | pIC50 | < 5.00
CN1CCN(CCNC(=O)c2cnc3ccc(-c4ccc5oc(N)nc5c4)cn23)CC1 [Compound 306] | PI3K β (Homo sapiens) | pIC50 | > 6.00

With those in mind, consider the next compound.
Req: Return reported pIC50. Input compound: CC(=O)Nc1nc2ccc(-c3ccc4oc(N)nc4c3)cc2s1 [Compound 231]
Resp: > 6.00

---

# TESTED TARGET: PI3K γ (Homo sapiens, UniProt P48736)
# Sequence (P48736 whole entry): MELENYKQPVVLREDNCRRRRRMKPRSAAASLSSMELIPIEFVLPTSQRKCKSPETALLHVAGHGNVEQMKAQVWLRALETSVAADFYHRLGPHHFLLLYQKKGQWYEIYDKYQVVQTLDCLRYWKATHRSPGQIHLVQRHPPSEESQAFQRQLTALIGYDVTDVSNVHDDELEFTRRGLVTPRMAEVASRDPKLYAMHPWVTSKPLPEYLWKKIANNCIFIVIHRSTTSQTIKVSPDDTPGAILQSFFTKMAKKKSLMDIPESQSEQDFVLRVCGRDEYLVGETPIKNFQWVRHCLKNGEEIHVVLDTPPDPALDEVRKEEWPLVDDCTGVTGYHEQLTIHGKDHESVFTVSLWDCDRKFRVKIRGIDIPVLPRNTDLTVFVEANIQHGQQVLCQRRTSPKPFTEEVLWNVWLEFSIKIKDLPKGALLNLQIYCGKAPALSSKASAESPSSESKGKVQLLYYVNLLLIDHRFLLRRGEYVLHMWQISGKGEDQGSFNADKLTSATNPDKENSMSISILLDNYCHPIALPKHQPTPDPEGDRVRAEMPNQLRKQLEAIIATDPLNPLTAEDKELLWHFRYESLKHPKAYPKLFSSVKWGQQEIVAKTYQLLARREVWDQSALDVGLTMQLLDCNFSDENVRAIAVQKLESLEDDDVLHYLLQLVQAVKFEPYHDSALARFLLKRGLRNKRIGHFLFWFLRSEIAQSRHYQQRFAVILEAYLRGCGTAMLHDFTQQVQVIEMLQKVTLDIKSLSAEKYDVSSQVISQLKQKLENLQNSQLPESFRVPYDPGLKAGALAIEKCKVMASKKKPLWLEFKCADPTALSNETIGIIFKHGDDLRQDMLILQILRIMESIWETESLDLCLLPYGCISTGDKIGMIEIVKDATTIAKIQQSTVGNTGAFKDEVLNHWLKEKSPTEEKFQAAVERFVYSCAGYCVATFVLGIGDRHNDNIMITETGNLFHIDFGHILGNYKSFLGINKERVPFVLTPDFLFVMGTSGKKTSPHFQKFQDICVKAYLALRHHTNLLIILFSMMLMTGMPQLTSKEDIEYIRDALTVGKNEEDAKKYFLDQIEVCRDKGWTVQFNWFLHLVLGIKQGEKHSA
# ASSAY REMARKS: PI 3-Kinase (human) HTRF assay, PI3K γ
# EXPERIMENTAL CONDITIONS: read-out: PI3K γ IC50; in vitro
pIC50: −log10 of the molar value.
VALUE KIND: pIC50

Record excerpt, results attached:
CHEMICAL STRING | pIC50
COc1ccc(CNc2n[nH]c3cc(-c4ccc5oc(N)nc5c4)ccc23)cc1 | < 5.00
C[C@H]1CN(C2CN(C(=O)c3cnc4ccc(-c5ccc6oc(N)nc6c5)cn34)C2)CCN1C | > 5.00

Req: Return reported pIC50. Input molecule: Nc1cc(-c2ccc3ncc(C(=O)N4CCOCC4)n3c2)cnc1Cl
Resp: < 5.00

---

# TESTED TARGET: PI3K δ (Homo sapiens, UniProt O00329)
# Sequence (O00329 whole entry): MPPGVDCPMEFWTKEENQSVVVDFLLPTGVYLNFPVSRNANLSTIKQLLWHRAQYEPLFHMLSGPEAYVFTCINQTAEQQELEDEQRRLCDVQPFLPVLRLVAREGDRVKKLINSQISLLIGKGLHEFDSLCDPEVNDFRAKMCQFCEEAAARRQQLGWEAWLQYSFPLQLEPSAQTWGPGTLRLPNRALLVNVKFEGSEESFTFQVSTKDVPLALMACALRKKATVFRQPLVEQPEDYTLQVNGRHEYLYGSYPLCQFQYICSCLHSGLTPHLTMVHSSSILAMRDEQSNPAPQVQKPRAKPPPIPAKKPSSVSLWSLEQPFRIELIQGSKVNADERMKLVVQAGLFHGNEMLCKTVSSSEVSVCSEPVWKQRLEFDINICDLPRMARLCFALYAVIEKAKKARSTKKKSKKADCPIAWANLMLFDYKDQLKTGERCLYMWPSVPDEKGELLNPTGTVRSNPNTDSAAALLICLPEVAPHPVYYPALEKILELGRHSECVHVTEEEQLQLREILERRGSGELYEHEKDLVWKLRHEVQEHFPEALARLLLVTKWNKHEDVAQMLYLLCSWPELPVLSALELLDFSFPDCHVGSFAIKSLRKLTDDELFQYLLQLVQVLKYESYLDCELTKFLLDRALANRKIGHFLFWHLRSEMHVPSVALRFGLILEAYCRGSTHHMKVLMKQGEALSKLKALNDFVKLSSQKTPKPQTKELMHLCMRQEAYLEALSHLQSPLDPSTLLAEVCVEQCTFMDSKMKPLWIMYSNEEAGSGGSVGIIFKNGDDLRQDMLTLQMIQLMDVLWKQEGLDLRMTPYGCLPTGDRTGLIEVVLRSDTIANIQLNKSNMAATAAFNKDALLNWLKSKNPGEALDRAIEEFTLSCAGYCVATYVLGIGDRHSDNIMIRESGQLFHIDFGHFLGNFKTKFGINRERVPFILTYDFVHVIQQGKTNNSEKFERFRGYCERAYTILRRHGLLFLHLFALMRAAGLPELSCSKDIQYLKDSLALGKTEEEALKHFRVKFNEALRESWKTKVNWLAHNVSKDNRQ
# Sequence (P27986 whole entry partner): as the sequence (P27986 whole entry partner) above
# ASSAY REMARKS: PI 3-Kinase (human) HTRF assay, PI3K δ
# EXPERIMENTAL CONDITIONS: read-out: PI3K δ IC50
pIC50: −log10 of the molar value.
VALUE KIND: pIC50

Req: System PI3K δ (Homo sapiens, UniProt O00329). Read-out pIC50. Item CN1CCN([C@H]2CCN(c3cnc4ccc(-c5ccc6oc(N)nc6c5)cc4n3)C2)CC1 [Compound 381] . Report value.
Resp: > 5.00

Req: System PI3K δ (Homo sapiens, UniProt O00329). Read-out pIC50. Item C[C@H]1CN(c2cnc3ccc(-c4ccc5oc(N)nc5c4)cc3n2)CCN1C [Compound 332] . Report value.
Resp: > 5.00

Req: System PI3K δ (Homo sapiens, UniProt O00329). Read-out pIC50. Item C[C@@H](N)C(=O)N1CCN(c2cnc3ccc(-c4ccc5oc(N)nc5c4)nc3n2)CC1 [Compound 582] . Report value.
Resp: > 5.00

Req: System PI3K δ (Homo sapiens, UniProt O00329). Read-out pIC50. Item CNC(=O)Cn1nc(-c2cc3cc(O)ccc3[nH]2)c2c(N)ncnc21 [Compound 35] . Report value.
Resp: < 6.30

Req: System PI3K δ (Homo sapiens, UniProt O00329). Read-out pIC50. Item COCCn1nc(-c2cc3cc(O)ccc3[nH]2)c2c(N)ncnc21 [Compound 40] . Report value.
Resp: < 6.30

Req: System PI3K δ (Homo sapiens, UniProt O00329). Read-out pIC50. Item Nc1ncnc2c1c(-c1cc3cc(O)ccc3[nH]1)nn2C1CC(N2CCOCC2)C1 (stereo not shown) [Compound 49] . Report value.
Resp: 6.30 to 7.00

Req: System PI3K δ (Homo sapiens, UniProt O00329). Read-out pIC50. Item C[C@@H]1CN(c2cnc3ccc(-c4ccc5oc(N)nc5c4)cc3n2)CCN1 [Compound 179] . Report value.
Resp: > 5.00

Req: System PI3K δ (Homo sapiens, UniProt O00329). Read-out pIC50. Item CC(=O)Nc1nc2ccc(-c3nc(N4CCOCC4)c4sc(CN5CCN(S(C)(=O)=O)CC5)cc4n3)cc2s1 [Compound 130] . Report value.
Resp: < 5.00

Req: System PI3K δ (Homo sapiens, UniProt O00329). Read-out pIC50. Item Nc1nc2cc(-c3ccc4ncc(N5CC(N6CCN(C7CC7)CC6)C5)nc4n3)ccc2o1 [Compound 620] . Report value.
Resp: > 5.00

---

IC50 overview
# TESTED TARGET: PI3K α (Homo sapiens)
# Sequence (P42336 whole entry): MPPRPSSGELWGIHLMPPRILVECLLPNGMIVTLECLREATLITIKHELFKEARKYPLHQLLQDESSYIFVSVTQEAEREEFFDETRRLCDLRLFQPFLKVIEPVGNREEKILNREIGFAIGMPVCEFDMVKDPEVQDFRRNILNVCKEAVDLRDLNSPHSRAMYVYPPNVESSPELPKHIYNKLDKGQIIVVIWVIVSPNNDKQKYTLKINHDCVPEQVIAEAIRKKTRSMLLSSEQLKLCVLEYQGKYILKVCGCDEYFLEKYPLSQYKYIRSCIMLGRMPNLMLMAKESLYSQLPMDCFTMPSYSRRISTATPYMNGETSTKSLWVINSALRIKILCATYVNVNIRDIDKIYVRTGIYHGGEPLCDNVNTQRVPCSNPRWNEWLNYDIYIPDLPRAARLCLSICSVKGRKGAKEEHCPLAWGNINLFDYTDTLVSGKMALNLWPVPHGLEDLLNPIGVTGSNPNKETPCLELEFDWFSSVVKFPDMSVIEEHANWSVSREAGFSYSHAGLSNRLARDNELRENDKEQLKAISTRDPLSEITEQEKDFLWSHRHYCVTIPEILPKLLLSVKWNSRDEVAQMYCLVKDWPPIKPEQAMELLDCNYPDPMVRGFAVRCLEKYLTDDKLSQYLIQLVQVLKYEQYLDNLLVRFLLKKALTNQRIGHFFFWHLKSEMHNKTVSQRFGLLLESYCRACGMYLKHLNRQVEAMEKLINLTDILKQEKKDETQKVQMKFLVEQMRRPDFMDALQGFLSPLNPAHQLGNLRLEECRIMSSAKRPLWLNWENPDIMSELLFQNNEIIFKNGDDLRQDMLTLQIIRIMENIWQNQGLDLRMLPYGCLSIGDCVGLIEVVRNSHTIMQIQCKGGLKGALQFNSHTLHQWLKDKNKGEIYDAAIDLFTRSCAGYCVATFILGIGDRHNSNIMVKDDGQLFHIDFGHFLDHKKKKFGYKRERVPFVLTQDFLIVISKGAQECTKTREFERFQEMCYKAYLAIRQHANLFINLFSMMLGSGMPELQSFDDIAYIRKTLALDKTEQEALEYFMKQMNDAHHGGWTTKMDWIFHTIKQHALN
# Sequence (P27986 whole entry partner): as the sequence (P27986 whole entry partner) above
# ASSAY REMARKS: PI 3-Kinase (human) HTRF assay, PI3K α
# EXPERIMENTAL CONDITIONS: read-out: PI3K α IC50

COMPOUND | IC50
CN1CCN(C2CC(n3nc(-c4cc5cc(O)ccc5[nH]4)c4c(N)ncnc43)C2)CC1 (centres unmarked) [Compound 52] | > 0.5 µM

Req: Return reported IC50. Input compound: Nc1nc2cc(-c3ccc4ncc(NC5CCC(O)CC5)nc4c3)ccc2o1 (centres unmarked) [Compound 128]
Resp: < 0.1 µM

Req: Return reported IC50. Input compound: CNC(=O)CCn1nc(-c2cc3cc(O)ccc3[nH]2)c2c(N)ncnc21 [Compound 43]
Resp: > 0.5 µM

Req: Return reported IC50. Input compound: Nc1ncnc2c1c(-c1cc3cc(O)ccc3[nH]1)nn2C1CC(=O)C1 [Compound 53]
Resp: > 0.5 µM

Req: Return reported IC50. Input compound: CC(C)[C@@H](N)C(=O)N1CCN(c2cnc3ccc(-c4ccc5oc(N)nc5c4)cc3n2)CC1 [Compound 270]
Resp: < 0.1 µM

Req: Return reported IC50. Input compound: Nc1ncnc2c1c(-c1cc3cc(O)ccc3[nH]1)nn2CC(=O)N1CCOCC1 [Compound 34]
Resp: > 0.5 µM

Req: Return reported IC50. Input compound: Cc1ccc(NC(=O)c2cnc3ccc(-c4ccc5oc(N)nc5c4)cn23)cn1 [Compound 294]
Resp: < 0.1 µM

---

# TESTED TARGET: PI3K β (Homo sapiens)
# ASSAY REMARKS: PI 3-Kinase (human) HTRF assay, PI3K β
# EXPERIMENTAL CONDITIONS: read-out: PI3K β IC50; Table 4
pIC50: −log10 of the molar value.
VALUE KIND: pIC50

Record excerpt, results attached:
COMPOUND | TESTED TARGET | pIC50
Nc1nc2cc(-c3ccc4ncc(N5CC(N6CCN(CCO)CC6)C5)cc4n3)ccc2o1 | PI3K β (Homo sapiens) | > 5.00
CN1CC2CN(c3cnc4ccc(-c5ccc6oc(N)nc6c5)nc4c3)CC2C1 (stereo not drawn) | PI3K β (Homo sapiens) | > 6.00
CCOC(=O)N1CCN(c2cnc3ccc(-c4ccc5oc(N)nc5c4)nc3c2)CC1 | PI3K β (Homo sapiens) | > 5.00
Nc1nc2cc(-c3ccc4ncc(N5C6CCC5COC6)nc4n3)ccc2o1 | PI3K β (Homo sapiens) | < 5.00
C[C@@H]1COCCN1C1CN(c2cnc3ccc(-c4ccc5oc(N)nc5c4)nc3c2)C1 | PI3K β (Homo sapiens) | > 5.00

Req: Return reported pIC50. Input compound: Nc1nc2cc(-c3ccc4ncc(N5CC(N6CCOCC6)C5)cc4n3)ccc2o1
Resp: > 5.00

Req: Return reported pIC50. Input compound: Nc1nc2cc(-c3ccc4ncc(N5CC(N6CCN(C7CC7)CC6)C5)cc4n3)ccc2o1
Resp: > 5.00

---

pIC50 overview
# TESTED TARGET: UniProtKB O00329
# ASSAY REMARKS: PI 3-Kinase (human) HTRF assay, PI3K δ
# EXPERIMENTAL CONDITIONS: read-out: PI3K δ IC50
pIC50: −log10 of the molar value.

Record excerpt, results attached:
MOLECULE | RESULT
CC(C)n1nc(-c2cc3cccc(Cl)c3[nH]2)c2c(N)ncnc21 | 6.30 to 7.00
Nc1nc2cc(-c3ccc4ncc(N5CC(N6CCOCC6)C5)cc4n3)ccc2o1 | > 5.00
C[C@H]1CN(c2cnc3ccc(-c4ccc5oc(N)nc5c4)nc3c2)CCN1 | > 5.00
Nc1nc2cc(-c3ccc4ncc(N5CC(N6C7CCC6COC7)C5)cc4n3)ccc2o1 | > 5.00
Nc1nc2cc(-c3ccc4ncc(N5C6CCC5COC6)cc4n3)ccc2o1 | < 5.00

Req: System UniProtKB O00329. Read-out pIC50. Item Nc1ncnc2c1c(-c1cc3cc(O)ccc3[nH]1)nn2CC(=O)N1CCOCC1 . Report value.
Resp: < 6.30
